Hey, just so you know, these numbers are from PubChem BioAssay AID624344.

TEST: NFkB reporter suppression in cystic fibrosis bronchial cells – cell-based, uHTS hits, panel, cytotoxicity readout, dose response (AID 624344)
ASSAY_CONDITIONS: CF bronchial epithelial cells, PAF-induced NFkB reporter inhibition; with PAF, mean of runs
PARAMETER: IC50

Examples from the recorded data:
CC1CCCCN1c1ncnc(N)c1[N+](=O)[O-] (stereo not given) : 3.66 µM
Cc1nn(-c2ccccc2)c(Cl)c1C(=O)N1CCN(c2ncnc3c2cnn3-c2ccccc2)CC1 : 3.18 µM
NC(=O)c1nsc(C(=O)N(c2ccccc2F)C(C(=O)NCc2ccc(F)cc2)c2ccc(O)cc2)c1N (stereo not given) : 2.08 µM
FC(F)Sc1ccc(NC(=S)NCC2CCCCC2)cc1 : 5.53 µM

[in] Query IC50 for COc1cncc(-c2cnc3sc(NCCc4ccccn4)nn23)c1
[out] 1.53 µM

[in] Query IC50 for CCn1c(Oc2ccccc2F)nc2c1c(=O)n(C)c(=O)n2C
[out] 3.57 µM

[in] Query IC50 for C=C1C(=O)[C@]23C[C@H]1CCC2[C@]1(C)C(=O)CC[C@@](C)(C(=O)O)C1C[C@@H]3O (stereo not given in full)
[out] 0.96 µM

[in] Query IC50 for O=[N+]([O-])c1ccc(NC(=S)NCCc2ccc(F)cc2)cc1
[out] 4.58 µM

[in] Query IC50 for COc1cccc(-c2nnc3sc(C4CCCCC4)nn23)c1
[out] 0.82 µM
